Recorded pKa, one value per entry.
condition: acidic group
Number, no unit, nothing else.

Examples from the recorded data:
>  <compound-structure>
O=C1CNC(=O)[C@H](Cc2ccc(O)cc2)N1

>  <pKa>
9.47

$$$$
>  <compound-structure>
[NH3+]CCCCCCC#CC#CCCC(=O)O

>  <pKa>
4.21

$$$$
>  <compound-structure>
O=C(O)CCCl

>  <pKa>
4.04

$$$$

For this molecule ( "O=C(O)CCC(=O)c1ccc2ccccc2c1" ), measured pKa is 4.96

Entry "Cc1cc(C)c2c(O)c(CC(=O)O)oc2c1" ; pKa = 4.75

Notebook: "O/N=C1C=C/C(=N\O)c2cccnc2/1" , pKa read as 10

Lookup result for "C/C=C/CC(=O)O" ; measured pKa: 4.28

get_value(item= "CC(C)(OO)c1ccccc1" , readout=pKa) returns 12.6

Lab note: measured pKa of "Cc1ccccc1C[N+](=O)[O-]" was 7.6

The molecule listed as "Cn1nc([N+](=O)[O-])nc1NN=O" has a reported pKa of 3.22

Per the record, "O=C(Cc1ccccn1)c1ccccc1" has pKa of 13.3

---

condition: acidic group
Catalogue of molecules with associated pKa
Lab note: jot down the number only; don't add units.

Consider the reported pKa for these molecules:
>  <compound-structure>
O=C(O)c1c2ccccc2[nH+]c2ccccc12

>  <pKa>
3

$$$$
>  <compound-structure>
Cc1cc(Nc2ccc(O)cc2)cc(C)c1O

>  <pKa>
10

$$$$
>  <compound-structure>
COC(=O)/C=C(\O)c1ccncc1

>  <pKa>
7.51

$$$$
>  <compound-structure>
N/N=C(\N)c1ncnc2nc[nH]c12

>  <pKa>
10

$$$$
>  <compound-structure>
Oc1cccc2nccnc12

>  <pKa>
8.8

$$$$

Looking up "CN(C)c1ccc(NC(=O)/C=N/O)cc1" , I see its pKa listed as 9.26

Recorded result, "C[N+](C)(C)CCC[N+](C)(C)CCCNC(=O)/C=N/O" , pKa: 8.31

---

condition: basic group
# pKa per record follows
Answer as a number with no unit attached.

Example molecules with recorded pKa:
>  <molecule>
[NH3+]C(c1ncc[nH]1)c1ncc[nH]1

>  <pKa>
4.07

$$$$
>  <molecule>
C[C@H]1CN[C@@H](C)CN1

>  <pKa>
9.98

$$$$
>  <molecule>
CCCN(CC(C)O)CC(C)O (stereo not given)

>  <pKa>
8.9

$$$$
>  <molecule>
Cc1cc(C)c2nccc(NCCC[NH+](C)C)c2c1[N+](=O)[O-]

>  <pKa>
6.37

$$$$
>  <molecule>
CC(C)CSCCN

>  <pKa>
8.73

$$$$

For "Cc1cc(N)ccc1[N+](=O)[O-]" the molecule record lists pKa as 1.64

Entry under test: "Nc1ccc(Cc2ccc([NH3+])cc2)cc1" . Its pKa was 4

Looking up "CC(C)CNC(C)C" , I see its pKa listed as 10.6

---

condition: basic group
Output: class label from pKa. Mapping: low: < 5; mid: ≥ 5 and < 8; high: ≥ 8

>  <molecule>
CCN(CC)CCCN(CC)CC

>  <assigned-category>
high

$$$$
>  <molecule>
CCCc1ccc(C)nn1

>  <assigned-category>
low

$$$$
>  <molecule>
CCCC1N=C(N)N=C(Nc2ccc(SC)cc2)N1 (stereo not given)

>  <assigned-category>
high

$$$$
>  <molecule>
Cc1cnc2c(ccc3cc(C)cnc32)c1

>  <assigned-category>
mid

$$$$
>  <molecule>
CCOc1ccc2nccc([C@@H](O)[C@@H]3C[C@H]4CC[NH+]3C[C@@H]4CC)c2c1

>  <assigned-category>
low

$$$$
>  <molecule>
NC[C@H](O)C(=O)[O-]

>  <assigned-category>
high

$$$$

Lab note: sort "c1cnc2c(c1)CCCC2" into the matching pKa band.
mid

---

condition: basic group
attribute-measured: pKa

Some compounds with known pKa results, for comparison:
>  <compound>
CC(=O)C1C(=O)c2ccccc2C1=O

>  <observed>
2.88

$$$$
>  <compound>
c1ccc(C2=NCCC2)cc1

>  <observed>
7.2

$$$$
>  <compound>
CCSC(=O)c1cccc(C)c1

>  <observed>
-4.77

$$$$
>  <compound>
COc1nc2ccccc2c2ccccc12

>  <observed>
2.38

$$$$
>  <compound>
CCCCCCCCCCCCCCCC[NH+](CCCCCCCCCCCCCCCC)CCn1ccnc1

>  <observed>
4

$$$$
>  <compound>
c1ccc(-c2nc3ccccc3[nH]2)nc1

>  <observed>
4.41

$$$$
>  <compound>
c1ccc(-c2ccc(NCC[NH+]3CCOCC3)nn2)cc1

>  <observed>
3.74

$$$$
>  <compound>
CN1[C@H]2CC=C(C(=O)[O-])[C@@H]1CC2

>  <observed>
10.8

$$$$

For reference, reported pKa for "O/N=C/NO" stands at 4.05

# pKa of "CCc1ccc(C(=O)[O-])nc1" = 5.86

---

condition: basic group
attribute-measured: pKa
I'd appreciate a reply containing only the number, no unit.

>  <compound-structure>
CN1CCC=C(C#N)C1

>  <attribute-measured>
pKa

>  <observed>
6.35

$$$$

get_value(item= "CNC(=O)NC" , readout=pKa) returns 1.02

Summary for this compound, "C1CNC1" : pKa is 11.3

// pKa value for "CCCNc1ccncc1S(=O)(=O)NC(=O)NC(C)C" : 7.58

Memo: "CC(C)(C)c1ccccn1" , reported pKa: 5.72

Query "c1cncc(-c2[nH]c3ccccc3[nH+]2)c1" yields pKa of 1.56

For "c1ccc(-c2ccoc2)nc1" the compound record lists pKa as 4.65

Per the records, this compound ( "[NH3+]CCCCc1ccncc1" ) has pKa equal to 5.81

---

condition: basic group
pKa vs 8: at or above is Yes, below is No.

Worked cases, answers included:
>  <compound-structure>
c1ccc(-c2ccc3ncc(CN4CCOCC4)n3n2)cc1

>  <assigned-category>
No

$$$$
>  <compound-structure>
C=Cc1c(C)c2cc3nc(c(CC(=O)OC)c4[nH]c(cc5nc(cc1[nH]2)C(C)=C5CC)c(C)c4C(=O)NCC)[C@@H](CCC(=O)OC)[C@@H]3C

>  <assigned-category>
No

$$$$
>  <compound-structure>
CN/C=N/c1cccc(-c2csc(N=C(N)N)n2)c1

>  <assigned-category>
Yes

$$$$
>  <compound-structure>
C1=C(c2ccccc2)C2CCN1CC2

>  <assigned-category>
Yes

$$$$
>  <compound-structure>
Nc1ccc(O)cc1O

>  <assigned-category>
No

$$$$
>  <compound-structure>
C[C@@H](C=C(c1ccccc1)c1ccccc1)N(C)C

>  <assigned-category>
Yes

$$$$

Record "Oc1cccc2cncnc12" ; criterion: pKa no lower than 8. Met?
No

---

condition: basic group
attribute-measured: pKa
Number, no unit, nothing else.

Reference set (5 entries):
>  <molecule>
CCOC(=O)CCCCCN

>  <attribute-measured>
pKa

>  <observed>
10.4

$$$$
>  <molecule>
Cc1c2ccncc2cc2c1[nH]c1cc[nH+]cc12

>  <attribute-measured>
pKa

>  <observed>
5.3

$$$$
>  <molecule>
C[NH+](C)CCNCC[NH+](C)C

>  <attribute-measured>
pKa

>  <observed>
3.84

$$$$
>  <molecule>
[O-]c1ccccn1

>  <attribute-measured>
pKa

>  <observed>
11.7

$$$$
>  <molecule>
Clc1ccnc(-c2ccccn2)c1

>  <attribute-measured>
pKa

>  <observed>
3.8

$$$$

Sample "CC(=O)N(N=C(C)C)C1CCN(C)CC1" ; pKa observed: 8.6

For record "CCN1CCC[C@@H]1CNC(=O)c1c([O-])c(Cl)cc(Cl)c1OC" the listed pKa is 9.12

pKa in this record for "CC(C)N(CCc1ccccc1)CCc1ccccc1" : 10

# pKa of "CCCCCNCc1ccc(C)cc1" = 10.1

Cc1ccc(C2CN2)cc1 (stereo not given) has a reported pKa of 6.76

"Nc1ccc2c(c1)-c1c(ccc3ccccc13)C2" yielded pKa of 4.67

Lab note: measured pKa of "C[Si](C)(CN)c1ccccc1" was 10.4

Measured pKa, "Nc1ccc2[nH]c(=O)[nH]c2c1" : 5

Reported pKa for "CNCCN(C)CCNC" was 10.4

Entry under test: "Cc1nc(N)c2ncsc2n1" . Its pKa was 4.56

---

condition: acidic group
Tag: Satisfied if measured pKa is not below 4, Not satisfied if it is.

>  <compound>
O=C1CCCC1=O

>  <assigned-category>
Satisfied

$$$$
>  <compound>
[NH3+]C(Cc1c[nH]c(=S)[nH]1)C(=O)O (configuration not stated)

>  <assigned-category>
Not satisfied

$$$$
>  <compound>
N#CC(Cc1ccccc1)C(=O)O (configuration not stated)

>  <assigned-category>
Not satisfied

$$$$
>  <compound>
CN(C)c1cc[nH+]c2c(O)cccc12

>  <assigned-category>
Satisfied

$$$$
>  <compound>
Cn1c(=O)[nH]c2nc[nH]c2c1=O

>  <assigned-category>
Satisfied

$$$$
>  <compound>
OCc1cccc(O)c1

>  <assigned-category>
Satisfied

$$$$
>  <compound>
O=C(O)CC1NC(=O)c2ccccc2O1 (configuration not stated)

>  <assigned-category>
Satisfied

$$$$
>  <compound>
C#CCCC(=O)O

>  <assigned-category>
Satisfied

$$$$

API: above_or_equal(metric=pKa, cutoff=4) for item "O=C(O)CS"
Not satisfied

Form field: pKa at least 4? Entry: "Fc1ccc(NC(=S)c2cccc(Br)c2)cc1"
Satisfied

Exam item: decide whether the reported pKa for CS(=O)c1cccc(O)c1 (configuration not stated) is at least 4.
Satisfied

Does the reported pKa for "O=c1ccccc(Br)c1O" fall at or above the 4 mark?
Satisfied

Is reported pKa greater than or equal to 4 here: "[O-]c1[nH+]c(O)c(Br)c[n+]1[C@H]1O[C@@H](CO)[C@H](O)[C@@H]1O"
Not satisfied
